Catalogue of % Emax readings, one per entry.
target: human PXR (Homo sapiens); construct: expressed in transfected cells; host or cells: DPX2 (stably transformed tumor cell line); assay: Human PXR activation assay, luciferase reporter gene in DPX2 cells; format: cell-based; conditions: 24 hr, relative to maximum fold induction by 10 or 20 uM rifampicin
Sequence (O75469 whole entry): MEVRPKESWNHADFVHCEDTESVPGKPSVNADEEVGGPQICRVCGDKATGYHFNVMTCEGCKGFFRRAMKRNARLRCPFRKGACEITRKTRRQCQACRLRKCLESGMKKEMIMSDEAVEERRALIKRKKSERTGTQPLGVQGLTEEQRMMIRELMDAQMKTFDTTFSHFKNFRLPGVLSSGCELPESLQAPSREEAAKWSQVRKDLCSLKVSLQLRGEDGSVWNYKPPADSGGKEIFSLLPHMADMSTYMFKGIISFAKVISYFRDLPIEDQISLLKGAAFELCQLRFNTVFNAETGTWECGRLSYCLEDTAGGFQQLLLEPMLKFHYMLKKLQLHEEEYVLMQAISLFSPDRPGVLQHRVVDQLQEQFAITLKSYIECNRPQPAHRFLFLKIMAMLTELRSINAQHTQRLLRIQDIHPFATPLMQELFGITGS

| compound | % Emax / % |
| --- | --- |
| O=C(NC1(c2ccc(F)cc2F)CC1)c1cn2c(c(O)c1=O)C(=O)N1C(C2)O[C@@H]2CCC[C@H]1C2 (stereo partly shown) [Compound 29] | 3.2 |
| O=C(NCc1ccc(F)c(F)c1)c1cn2c(c(O)c1=O)C(=O)N1[C@@H]3CC[C@@H](C3)O[C@H]1C2 [Compound 18] | 4.4 |
| C[C@H]1CO[C@@H]2Cn3cc(C(=O)NC4(c5ccc(F)cc5F)CC4)c(=O)c(O)c3C(=O)N12 [Compound 37] | 1.5 |
| O=C(NCc1ccc(F)cc1F)c1cn2c(c(O)c1=O)C(=O)N1C(C2)[N@@]2CC[C@@H]1C2 (stereo partly shown) [Compound 4] | 3.2 |
